ASSAY_INFO: solvent given as SMILES
RUN_PARAMETERS: in CCCC(C)=O
MEASURED_METRIC: solvation free energy, 298 K (kcal/mol)

CCCCC :: -2.89
CC(C)C(C)C(C)C :: -4.49
CCCCCCCCC :: -5.41
CCCCCC :: -3.52
CCCCCCC :: -4.17
CC(C)CCC(C)C :: -4.38
CCCCCCCC :: -4.81

* * *

In this section, each of the compounds is paired with its reported solvation free energy, 298 K.
ASSAY_INFO: solvent given as SMILES
RUN_PARAMETERS: in O=CN1CCOCC1
MEASURED_METRIC: solvation free energy, 298 K

CC(C)c1ccccc1 :: -5.28 kcal/mol
C1CCOC1 :: -3.7 kcal/mol
CC=CC=O :: -4.69 kcal/mol
CC(C)=O :: -3.66 kcal/mol
CC=CC :: -1.45 kcal/mol
C=C(C)C :: -1.36 kcal/mol
C=COC(C)=O :: -3.98 kcal/mol
CCCCC :: -1.51 kcal/mol
CCO :: -4.53 kcal/mol
CCCCCC :: -1.98 kcal/mol
CC(=O)CC(C)C :: -4.62 kcal/mol
CCOC(C)=O :: -3.89 kcal/mol
CCCCCCCCC :: -3.47 kcal/mol
CCCCCCC :: -2.52 kcal/mol
CCc1ccccc1 :: -5.01 kcal/mol
C[N+](=O)[O-] :: -5.28 kcal/mol
CCCCCCCC :: -3.04 kcal/mol
